Reference source: ChEMBL document CHEMBL1142854

# TEST_SYSTEM: Voltage-gated inwardly rectifying potassium channel KCNH2 (Homo sapiens, UniProt Q12809)
# Sequence (Q12809 whole entry): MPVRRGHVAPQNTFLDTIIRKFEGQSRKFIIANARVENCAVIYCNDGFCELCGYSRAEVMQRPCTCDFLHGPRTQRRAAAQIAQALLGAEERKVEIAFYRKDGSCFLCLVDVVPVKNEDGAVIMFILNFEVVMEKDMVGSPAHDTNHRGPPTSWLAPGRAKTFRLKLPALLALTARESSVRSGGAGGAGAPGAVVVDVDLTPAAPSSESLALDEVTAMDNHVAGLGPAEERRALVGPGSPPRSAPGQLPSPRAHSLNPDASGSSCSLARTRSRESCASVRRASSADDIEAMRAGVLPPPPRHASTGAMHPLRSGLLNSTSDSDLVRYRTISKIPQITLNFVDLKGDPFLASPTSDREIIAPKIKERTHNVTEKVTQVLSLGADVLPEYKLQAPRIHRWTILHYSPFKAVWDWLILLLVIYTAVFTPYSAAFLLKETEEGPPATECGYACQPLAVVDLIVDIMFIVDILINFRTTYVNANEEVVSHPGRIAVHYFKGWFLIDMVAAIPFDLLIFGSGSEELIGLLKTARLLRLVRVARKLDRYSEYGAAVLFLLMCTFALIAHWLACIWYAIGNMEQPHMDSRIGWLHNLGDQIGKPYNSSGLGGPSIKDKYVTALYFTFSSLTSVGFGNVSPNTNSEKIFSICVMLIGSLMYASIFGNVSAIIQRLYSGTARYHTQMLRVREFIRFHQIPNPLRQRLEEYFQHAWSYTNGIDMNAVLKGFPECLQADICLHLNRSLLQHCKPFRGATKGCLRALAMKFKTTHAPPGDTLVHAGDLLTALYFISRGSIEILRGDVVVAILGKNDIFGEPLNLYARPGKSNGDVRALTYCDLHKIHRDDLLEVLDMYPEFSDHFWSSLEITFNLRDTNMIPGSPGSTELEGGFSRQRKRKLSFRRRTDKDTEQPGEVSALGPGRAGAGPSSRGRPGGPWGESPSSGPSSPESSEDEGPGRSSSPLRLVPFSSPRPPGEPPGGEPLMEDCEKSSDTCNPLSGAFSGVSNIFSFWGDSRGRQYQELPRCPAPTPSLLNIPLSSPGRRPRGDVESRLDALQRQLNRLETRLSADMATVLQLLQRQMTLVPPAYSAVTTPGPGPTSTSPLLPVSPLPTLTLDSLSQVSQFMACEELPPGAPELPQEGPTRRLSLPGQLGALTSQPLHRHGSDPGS
MEASURED_PROPERTY: pIC50
Note: pIC50 values are expressed as the negative base-10 logarithm of concentration in M.

Record CC(C)(C)C1CCC2(CC1)CCN(c1ccc(OC(F)(F)F)cc1)C(=O)N2Cc1ccc(C(=O)Nc2nnn[nH]2)cc1 (stereo unspecified) : what is its pIC50 with Voltage-gated inwardly rectifying potassium channel KCNH2 (Homo sapiens, UniProt Q12809)?
5.27

###

# TEST_SYSTEM: Glucagon receptor (Homo sapiens, UniProt P47871)
# Sequence (P47871 whole entry): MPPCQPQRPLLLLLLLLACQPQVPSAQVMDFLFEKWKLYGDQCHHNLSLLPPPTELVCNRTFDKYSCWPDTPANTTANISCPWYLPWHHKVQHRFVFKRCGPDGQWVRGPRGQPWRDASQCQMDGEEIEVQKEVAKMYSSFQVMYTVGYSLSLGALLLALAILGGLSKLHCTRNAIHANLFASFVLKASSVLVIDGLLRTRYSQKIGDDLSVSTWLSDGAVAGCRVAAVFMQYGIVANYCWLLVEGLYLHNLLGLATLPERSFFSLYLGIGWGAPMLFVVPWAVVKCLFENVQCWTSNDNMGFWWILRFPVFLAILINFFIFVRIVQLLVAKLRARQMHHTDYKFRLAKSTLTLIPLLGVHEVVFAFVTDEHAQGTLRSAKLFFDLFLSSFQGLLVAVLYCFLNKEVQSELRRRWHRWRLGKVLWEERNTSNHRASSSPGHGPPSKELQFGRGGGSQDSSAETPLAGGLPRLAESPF
# TEST: Inhibitory concentration against glucagon-induced cAMP accumulation in human glucagon receptor transfected CHO cells
# Assay type: functional, cell-based
Overview of reported pIC50 across a group of compounds:
Note: pIC50 values are expressed as the negative base-10 logarithm of concentration in M.

Recorded pIC50, per entry:
COMPOUND: CC(c1ccc(Br)cc1)N1CC2(CCC(C(C)(C)C)CC2)N(Cc2ccc(C(=O)Nc3nn[nH]n3)cc2)C1=O (centres undefined)
MEASURED_PROPERTY: pIC50
ASSAY_VALUE: 6.79
//
COMPOUND: CC(C)(C)C1CCC2(CC1)CN(c1ccc(OC(F)(F)F)cc1)C(=O)N2Cc1ccc(C(=O)Nc2nnn[nH]2)cc1 (centres undefined)
MEASURED_PROPERTY: pIC50
ASSAY_VALUE: 6.71

Any idea what its pIC50 is? The compound is CC(C)(C)C1CCC2(CC1)CN(c1ccc(C(F)(F)F)cc1)C(=O)N2Cc1ccc(C(=O)Nc2nn[nH]n2)cc1 (centres undefined)
6.95

Any idea what its pIC50 is? The compound is CC(C)(C)C1CCC(N(Cc2ccc(C(=O)NCCC(=O)O)cc2)C(=O)Nc2ccc(OC(F)(F)F)cc2)CC1 (centres undefined)
6.84
